Test system: NCI-H226 lung
assay_procedure: NCI tumour cell line growth inhibition, 48 h
Please provide measured TGI for the entries that follow.
Numbers only here, please. The scale is µM.

Consider ClCCN(CCCl)c1ccc(/C=N/Nc2ccnc3ccccc23)cc1 . Its measured TGI is 3.48

Entry C[N+](C)(C)CC1CCCC1=O (stereo not given) — recorded TGI = 34.6

Measured TGI of Oc1[nH]c2ccccc2c1N=NC(=S)Nc1ccccc1Cl : 53

====

Answer each item with its documented TGI.
Test system: U251 CNS
assay_procedure: NCI tumour cell line growth inhibition, 48 h

For record OCCN(CCO)c1ncnc2nc[nH]c12 the listed TGI is > 100 µM

// recorded TGI for COC(=O)[C@]1(NC(=O)c2ccccc2)C[C@H]1C=O : > 100 µM

Value of measured TGI for the entry O=C1CSC2(CC(/C=C/c3cccc([N+](=O)[O-])c3)=NN2c2cccc(S(=O)(=O)O)c2)N1c1nc2ccccc2s1 (stereo unspecified) : 36.3 µM

Recorded result, COC(=O)c1c(C)n([O-])c2cc(Cl)c(Cl)cc2[n+]1=O , TGI: > 100 µM

Form: compound = CCN1CCC(O)(/C=C/c2ccccc2C)C(C(=O)/C=C/c2ccccc2C)C1 (stereo unspecified) ; TGI = 7.25 µM

Looking up COc1cc(O)c2c(=O)c(O)c(-c3ccc(O)c(OC)c3)oc2c1 , I see its TGI listed as 18.1 µM

Reported TGI of O=C(O)CCC(=O)c1ccc2sc3ccccc3c2c1 : > 100 µM

// sample CC(=O)NCc1cccc(C#Cc2cncnc2Nc2ccc(OCc3cccc(F)c3)c(Cl)c2)c1 , its TGI was > 25 µM

Note to self: TGI recorded for CC1(C)CC[C@]2(C)CC[C@]3(C)C(=CC[C@@H]4[C@@]5(C)CCC(=O)C(C)(C)[C@@H]5[C@H](O)C[C@]43C)[C@@H]2C1 was 30.5 µM

Query CN1C(c2ccccc2)CC(=O)C(N)C1c1ccccc1 (stereo unspecified) yields TGI of 49.2 µM

So, CCOC(=O)NNC(=O)NCc1cccc(CNC(=O)NNC(=O)OCC)c1 ? Its TGI was > 100 µM

Memo: CC(C)=CCN1CC(C)C(=O)Nc2ccccc21 (stereo unspecified) , reported TGI: > 100 µM

The recorded TGI for entry O=C(O)/C=C/c1nc2ccccc2c(=O)o1 equals > 100 µM

Value of TGI reported for the compound COc1cc2c(c(O)c1OC)C(=O)[C@@H]1CCC(=O)N1C2 is > 100 µM

Lookup result for COC(=O)c1cc2c(cc1Cl)SC1=NN(C)C(N(C)C)N1S2(=O)=O (stereo unspecified) ; measured TGI: > 100 µM

# TGI of CCCCCCCC1(N=[N+]=[N-])C(=O)Nc2ccccc2C1=O (stereo unspecified) = 28.8 µM

====

I'd appreciate it if you could supply TGI values for the items below.
Test system: LOX IMVI melanoma
assay_procedure: NCI tumour cell line growth inhibition, 48 h

For this compound ( O=C(Nc1cccc(-n2cc(-c3ccncc3)c(-c3cc(O)cc(Cl)c3)n2)c1)c1cc(C(F)(F)F)cc(C(F)(F)F)c1 ), measured TGI is 13.7 µM

Noted for O=C(CC1SC(=Nc2ccccc2Cl)NC1=O)Nc1ccc(Cl)cc1Cl (centres undefined) : its TGI reads > 100 µM

Item: O=C(CC1(O)C(=O)N(Cc2ccccc2)c2ccccc21)c1ccc(C(=O)NCC2CCC3(CC2)OOC2(CCCCC2)OO3)cc1 (centres undefined) | TGI: 0.31 µM

// Nc1c([N+](=O)[O-])nc(Cl)c2nncn12 : TGI value = > 61.1 µM

TGI measured on Cc1cc(C)nc(NS(=O)(=O)c2ccc(NC(=O)c3cccc4c(Nc5ccc(S(=O)(=O)Nc6cc(C)on6)cc5)c5ccccc5nc34)cc2)n1 = 35.6 µM

Field TGI (entry c1ccc2oc(-c3ccc(-c4nc5ccccc5o4)c4c3CC4)nc2c1 ) reads > 100 µM

TGI reading for O=C(c1nc2ccccc2[nH]c1=O)C(O)c1ccccc1 (centres undefined) : > 100 µM

TGI reported for this compound CCCCC1(C)C=C/C(=C2/C(=O)O/C(=C\C(=O)O)C2=O)O1 (centres undefined) : > 100 µM

TGI for N#CC(C#N)c1ccc(C(=O)N2CCC[C@H]2CO)cc1 is > 100 µM

====

Test system: NCI-H460 lung
Entry note: the call must match one of active, inactive

Q: Hi, sorry to bother you, what did the test record for CCCCCCNC(=O)Oc1ccc(/C(=C(\C)c2ccc(Cl)cc2)c2ccc(OCCN3CCCCC3)cc2)cc1 ?
Result: inactive

Q: GET /call?item= NS(=O)(=O)c1ccc(-c2cc3ccncc3cc2OCc2ccccc2)cc1 returns the recorded outcome of this test.
Result: inactive

Q: Query: recorded result category for CN(CCNCc1ccccn1)CCNCc1ccccn1 in this test
Result: inactive

Q: Which outcome was entered for the molecule CCc1cccc(C)c1NC(=O)c1sc2nc3c(cc2c1N)C(=O)CCC3 in this test?
Result: active

Q: What call does the record list for c1ccc2cc(-c3n(Cc4ccc5ccccc5n4)c4ccccc4[n+]3Cc3ccc4ccccc4n3)ccc2c1 ?
Result: active

Q: Name the outcome recorded for CC1OC(OC2C(O)CC(OC3C(O)CC(OC4CCC5(C)C(CCC6C5CC(O)C5(C)C(C7=CC(=O)OC7)CCC65O)C4)OC3C)OC2C)CC(O)C1O (stereo not given) in the assay.
Result: active

Q: Hello, I am checking results. What call was entered for COc1ccc(NC(=O)C2CCC(CNS(=O)(=O)c3ccccc3)CC2)cc1OC (stereo not given) ?
Result: inactive

Q: Status in this test for CCN(CC)CCCCCCNc1cc(OC)cc2cccnc12 ?
Result: inactive

Q: Field: outcome | Entry: O=C(CC1(O)C(=O)N(Cc2ccccc2)c2ccccc21)c1ccc(C(=O)NCC2CCC3(CC2)OOC2(CCCCC2)OO3)cc1 (stereo not given)
Result: inactive

Q: Hi team, can someone confirm the assay call for C(=N/N(Cc1ccccc1)Cc1ccccc1)/c1ccccc1 ?
Result: inactive

Q: Assay outcome for COc1ccc(-c2nc(/C=C3\SC(=NCc4ccccc4)NC3=O)c3ccccn23)cc1 : what was it?
Result: inactive

Q: What did this assay record as the result for COC1=C(OC)C(=O)C(SC/C=C(\C)CCCC(C)CCCC(C)CCCC(C)C)=CC1=O (stereo not given) ?
Result: inactive

Q: # lookup: test call for Cc1cc(C#Cc2ccc(C(C)(C)C)cc2)ccc1-n1c(/C=C/c2ccc(O)cc2O)nc2ccccc2c1=O
Result: inactive

Q: Check the results log: what was the call for COC(=O)c1cncc(/C=C/c2c(C)cc(O)cc2C)c1 ?
Result: inactive

Q: So what was the verdict on COC(=O)CCCCC(=O)c1c(C)[nH]c(/C=C2\N=C(c3ccc[nH]3)C=C2OC)c1C in this test?
Result: inactive

Q: Please indicate how the test categorized c1ccc(-c2nc(N3CCNCC3)c3oc(-c4ccccc4)nc3n2)cc1 .
Result: inactive

Q: What is the recorded call for this molecule in the test? Oc1c(I)cc(I)c2cccnc12
Result: inactive

Q: Given CSc1nc2sc3c(c2c(=O)n1-c1ccc(C(C)C)cc1)CCC(=O)C3 , state the outcome it received in this test.
Result: inactive

Q: For this molecule, state the assay outcome: COc1ccc(/C=C(\C#N)n2nnc3c(F)cccc32)cc1
Result: active

Q: Which outcome was assigned to C/C(=C\c1cnc(C)s1)[C@@H]1C[C@@H]2O[C@@H]2CCC[C@H](C)[C@H](O)[C@@H](C)C(=O)C(C)(C)[C@@H](O)CC(=O)O1 in this test?
Result: active

====

Test system: EKVX NSCLC
assay_procedure: NCI tumour cell line growth inhibition, 48 h
observable: TGI

Memo: CCOC(=O)c1nc2cc(C(F)(F)F)ccc2nc1Nc1ccc(OC)cc1 , reported TGI: > 100 µM

Reported TGI of C(=N/N(Cc1ccccc1)Cc1ccccc1)/c1ccccc1 : > 100 µM

In plain terms, COC1C(O)C(CO)OC(OC2C(O)COC(OC3C(C)OC(OC4C(O[C@H]5CC[C@@]6(C)C(CC=C7[C@H]6CCC68C(=O)O[C@@](C)(CCCC(C)C)[C@H]6[C@@H](OC(C)=O)C[C@@]78C)C5(C)C)OCC(OS(=O)(=O)O)C4O)C(OC4OCC(O)C(O)C4O)C3O)C2O)C1O (some centres undefined) has a documented TGI of 0.565 µM

Lab note: measured TGI of C[N+](C)(C)CC1CCCC1=O (centres undefined) was 4.62 µM

Briefly, TGI measured for N#Cc1ccc(C=NC23CC4CC(CC(C4)C2)C3)cc1 : > 100 µM

// sample c1cc2nnc1SCCCSc1ccc(nn1)SCCCS2 , its TGI was > 100 µM

GET /value?item= CC12CCC(=O)N1c1ccc([N+](=O)[O-])cc1N2 (centres undefined) &field=TGI returns > 100 µM

So, CCOC(=O)C1(F)S(=O)(=O)OCCOS1(=O)=O ? Its TGI was > 100 µM

The compound O=[N+]([O-])c1cccc2nc3ccccc3c(NCCCNc3c4ccccc4nc4cccc([N+](=O)[O-])c34)c12 showed TGI equal to 0.0975 µM
